# assayNotes: Pharmacokinetic test in mice
# Format: in vivo
# setupConditions: mouse, plasma, 5 mg/kg; BALB/c mice, PO @5mpk; read-out: t½ (converted)
measuredAttribute: half-life (h)

# example entries with known answers
- smilesStr: "Cc1cc(NC(=O)c2ccc(NS(=O)(=O)CCO)cc2N2CC3CCC(C3)C2)nc(N2CCC(F)(F)CC2)n1"
  reading: 44.5
- smilesStr: "CS(=O)(=O)Nc1ccc(C(=O)Nc2cn3cnnc3c(N3CCC(F)(F)CC3)n2)c(N2CC3CCC(C3)C2)c1"
  reading: 3.9
- smilesStr: "O=C(Nc1cn2c(F)cnc2c(N2CCC(F)(F)CC2)n1)c1ccc(NS(=O)(=O)CCO)cc1N1CCC2(CC1)CC2"
  reading: 3.7
- smilesStr: "CS(=O)(=O)Nc1ccc(C(=O)Nc2cn3ccnc3c(N3CCC(F)(F)CC3)n2)c(N2CC3CCC(C3)C2)c1"
  reading: 14.9
- smilesStr: "O=C(Nc1cc2cccnc2c(N2CCC(F)(F)CC2)n1)c1ccc(NS(=O)(=O)CCO)cc1N1CCC2(CC1)CC2"
  reading: 4
- smilesStr: "CS(=O)(=O)Nc1ccc(C(=O)Nc2cc3nccnc3c(N3CCC(F)(F)CC3)n2)c(N2CC3CCC(C3)C2)c1"
  reading: 6
- smilesStr: "O=C(Nc1cn2ccnc2c(N2CCC(F)(F)CC2)n1)c1ccc(NS(=O)(=O)CCO)cc1N1CC2CCC(C2)C1"
  reading: 3.3
- smilesStr: "O=C(Nc1cc2ccsc2c(N2CCC(F)(F)CC2)n1)c1ccc(NS(=O)(=O)CCO)cc1N1CCC2(CC1)CC2"
  reading: 3.4

[A] O=C(Nc1cn2ccnc2c(N2CCC(F)(F)CC2)n1)c1ccc(NS(=O)(=O)CCO)cc1N1CCC2(CC1)CC2
[B] O=C(Nc1cc2ccccc2c(N2CCC(F)(F)CC2)n1)c1ccc(NS(=O)(=O)CCO)cc1N1CCC2(CC1)CC2
Task item: In terms of reported half-life, does A or B have the smaller number? State the label of the item chosen.
Reply: A
(A: 1.2 h, B: 4.7 h)

###

# assayNotes: Pharmacokinetic test in mice
# Format: in vivo
# setupConditions: mouse, plasma, 30 mg/kg; BALB/c mice, PO @30mpk
# Method: In this example, the pharmacokinetic behavior of the compounds after intravenous injection (IV) and intragastric (PO) administration in BALB/c mice was tested. On the day of administration, mice were weighed for actual body weight and the administration volume was calculated. […] Plasma concentrations were determined by the LC-MS/MS method. […] The relevant pharmacokinetic parameters were calculated by a linear-log trapezoidal method.
measuredAttribute: Cmax (µM)

- smilesStr: "CS(=O)(=O)Nc1ccc(C(=O)Nc2cc3cn[nH]c3c(N3CCC(F)(F)CC3)n2)c(N2CC3CCC(C3)C2)c1"
  readingUnit: "µM"
  reading: 20.5
- smilesStr: "CS(=O)(=O)Nc1ccc(C(=O)Nc2cc3cccnc3c(N3CCC(F)(F)CC3)n2)c(N2CC3CCC(C3)C2)c1"
  readingUnit: "µM"
  reading: 6.31
- smilesStr: "CS(=O)(=O)Nc1ccc(C(=O)Nc2cn3c(F)cnc3c(N3CCC(F)(F)CC3)n2)c(N2CC3CCC(C3)C2)c1"
  readingUnit: "µM"
  reading: 14.1

[I] CS(=O)(=O)Nc1ccc(C(=O)Nc2cn3ncnc3c(N3CCC(F)(F)CC3)n2)c(N2CC3CCC(C3)C2)c1
[II] Cn1ncc2cc(NC(=O)c3ccc(NS(C)(=O)=O)cc3N3CC4CCC(C4)C3)nc(N3CCC(F)(F)CC3)c21
[III] O=C(Nc1cn2c(F)cnc2c(N2CCC(F)(F)CC2)n1)c1ccc(NS(=O)(=O)CCO)cc1N1CC2CCC(C2)C1
Task item: Hey, quick one: sort these by Cmax, largest value first please. Provide the labels, sequenced as the question asks.
Reply: II, III, I

###

# assayNotes: Stability test in rat liver microsomes
# Type: in vitro ADME, Sprague-Dawley rats
# setupConditions: Sprague-Dawley, pH 7.4; rat liver microsomes 0.5 mg/mL, 1.0 μM substrate; read-out: RLM 0.5 T½
measuredAttribute: half-life at 1 μM (min)

[a] CS(=O)(=O)Nc1ccc(C(=O)Nc2cn3ccnc3c(N3CCC(F)(F)CC3)n2)c(N2CCC3(CC2)CC3)c1
[b] CS(=O)(=O)Nc1ccc(C(=O)Nc2cc3cc[nH]c3c(N3CCC(F)(F)CC3)n2)c(N2CCC3(CC2)CC3)c1
[c] O=C(Nc1cn2c(F)cnc2c(N2CCC(F)(F)CC2)n1)c1ccc(NS(=O)(=O)CCO)cc1N1CCC2(CC1)CC2
[d] O=C(Nc1cc2c(c(N3CCC(F)(F)CC3)n1)COC2)c1ccc(NS(=O)(=O)CCO)cc1N1CCC2(CC1)CC2
Task item: Ranking criterion: half-life at 1 μM, increasing numeric value. Items: as listed above. Provide the labels, sequenced as the question asks.
Reply: d, a, b, c

[a] CS(=O)(=O)Nc1ccc(C(=O)Nc2cn3ccnc3c(N3CCC(F)(F)CC3)n2)c(N2CC3CCC(C3)C2)c1
[b] O=C(Nc1cc2ccsc2c(N2CCC(F)(F)CC2)n1)c1ccc(NS(=O)(=O)CCO)cc1N1CCC2(CC1)CC2
Task item: Parameter check: reported half-life at 1 μM is higher for which label, a or b ? State the label of the item chosen.
Reply: b

###

# assayNotes: Stability test in rat liver microsomes
# Assay type: in vitro ADME, Sprague-Dawley rats
# setupConditions: Sprague-Dawley, pH 7.4; rat liver microsomes 0.5 mg/mL, 1.0 μM substrate; read-out: RLM 0.5 CLint(liver)
measuredAttribute: CLint scaled at 1 μM (mL/min/kg)

[1] O=C(Nc1cc2c(c(N3CCC(F)(F)CC3)n1)COC2)c1ccc(NS(=O)(=O)CCO)cc1N1CCC2(CC1)CC2 [Compound 14]
[2] CS(=O)(=O)Nc1ccc(C(=O)Nc2cn3ccnc3c(N3CCC(F)(F)CC3)n2)c(N2CCC3(CC2)CC3)c1 [Compound 10]
Task item: Parameter check: reported CLint scaled at 1 μM is higher for which label, 1 or 2 ? State the label of the item chosen.
Reply: 1
(1: 34.3 mL/min/kg, 2: 19.3 mL/min/kg)

###

# assayNotes: Pharmacokinetic test in rats
# Format: in vivo
# setupConditions: rat, plasma, 5 mg/kg; SD rats, PO @5mpk
measuredAttribute: AUC (µM·h)

- compound: "Cc1cc(NC(=O)c2ccc(NS(=O)(=O)CCO)cc2N2CC3CCC(C3)C2)nc(N2CCC(F)(F)CC2)n1 [Compound 3]"
  measuredAttribute: "AUC"
  readingUnit: "µM·h"
  reading: 16.2
- compound: "O=C(Nc1cn2ccnc2c(N2CCC(F)(F)CC2)n1)c1ccc(NS(=O)(=O)CCO)cc1N1CCC2(CC1)CC2 [Compound 8]"
  measuredAttribute: "AUC"
  readingUnit: "µM·h"
  reading: 1.56
- compound: "O=C(Nc1cn2ccnc2c(N2CCC(F)(F)CC2)n1)c1ccc(NS(=O)(=O)CCO)cc1N1CC2CCC(C2)C1 [Compound 17]"
  measuredAttribute: "AUC"
  readingUnit: "µM·h"
  reading: 3.2
- compound: "O=C(Nc1cn2ccnc2c(N2CCCCC2)n1)c1ccc(NS(=O)(=O)CCO)cc1N1CCC2(CC1)CC2 [Compound 12]"
  measuredAttribute: "AUC"
  readingUnit: "µM·h"
  reading: 2.41
- compound: "CS(=O)(=O)Nc1ccc(C(=O)Nc2cn3ccnc3c(N3CCC(F)(F)CC3)n2)c(N2CC3CCC(C3)C2)c1 [Compound 19]"
  measuredAttribute: "AUC"
  readingUnit: "µM·h"
  reading: 20.5

[I] O=C(Nc1cc2ccsc2c(N2CCC(F)(F)CC2)n1)c1ccc(NS(=O)(=O)CCO)cc1N1CCC2(CC1)CC2 [Compound 15]
[II] O=C(Nc1cc2cccnc2c(N2CCC(F)(F)CC2)n1)c1ccc(NS(=O)(=O)CCO)cc1N1CCC2(CC1)CC2 [Compound 21]
Task item: In terms of reported AUC, does I or II have the smaller number? State the label of the item chosen.
Reply: I

###

# assayNotes: Pharmacokinetic test in rats
# Type: in vivo
# setupConditions: rat, plasma, 5 mg/kg; SD rats, PO @5mpk; read-out: t½ (converted)
measuredAttribute: half-life (h)

[a] O=C(Nc1cn2ccnc2c(N2CCCCC2)n1)c1ccc(NS(=O)(=O)CCO)cc1N1CCC2(CC1)CC2
[b] O=C(Nc1cc2ccsc2c(N2CCC(F)(F)CC2)n1)c1ccc(NS(=O)(=O)CCO)cc1N1CCC2(CC1)CC2
Task item: Parameter check: reported half-life is higher for which label, a or b ? State the label of the item chosen.
Reply: b

###

# assayNotes: Pharmacokinetic test in rats
# Format: in vivo
# setupConditions: rat, plasma, 5 mg/kg; SD rats, PO @5mpk
measuredAttribute: Cmax (nM)

# example entries with known answers
- smilesStr: "Cc1cc(NC(=O)c2ccc(NS(=O)(=O)CCO)cc2N2CC3CCC(C3)C2)nc(N2CCC(F)(F)CC2)n1"
  Cmax [nM]: 1330
- smilesStr: "O=C(Nc1cn2ccnc2c(N2CCC(F)(F)CC2)n1)c1ccc(NS(=O)(=O)CCO)cc1N1CC2CCC(C2)C1"
  Cmax [nM]: 582

[a] O=C(Nc1cc2cccnc2c(N2CCC(F)(F)CC2)n1)c1ccc(NS(=O)(=O)CCO)cc1N1CCC2(CC1)CC2
[b] O=C(Nc1cn2ccnc2c(N2CCC(F)(F)CC2)n1)c1ccc(NS(=O)(=O)CCO)cc1N1CCC2(CC1)CC2
[c] O=C(Nc1cn2ccnc2c(N2CCCCC2)n1)c1ccc(NS(=O)(=O)CCO)cc1N1CCC2(CC1)CC2
[d] CS(=O)(=O)Nc1ccc(C(=O)Nc2cn3ccnc3c(N3CCC(F)(F)CC3)n2)c(N2CC3CCC(C3)C2)c1
Task item: List by increasing Cmax. Provide the labels, sequenced as the question asks.
Reply: b, c, d, a
